Let's look at some Ki data for 5-hydroxytryptamine receptor 6 (Homo sapiens) that I collected from the literature.
Readout label: Ki (nM)

Observe how each entry below is paired with its result.
Compound: Cc1noc(C)c1S(=O)(=O)n1ccc2c3c(ccc21)CCC(N(C)C)C3 (centres unmarked)
Units symbol: nM
Ki: 59

Compound: Nc1ccc(S(=O)(=O)n2ncc3c(OCCN4CCCCC4)cccc32)cc1
Units symbol: nM
Ki: 1

Compound: CN1CCC(c2cn(S(=O)(=O)c3ccc(Cl)c(Cl)c3)c3ccccc23)C1 (centres unmarked)
Units symbol: nM
Ki: 3

Compound: O=S(=O)(c1ccccc1F)n1cc(C(F)F)c2c(N3CCNCC3)cccc21
Units symbol: nM
Ki: 0.46

Compound: O=S(=O)(c1cccc(F)c1)c1cn(CC2CCCN2)c2ncccc12 (centres unmarked)
Units symbol: nM
Ki: 9

Compound: O=c1n(C2CCNCC2)c2ccccc2n1S(=O)(=O)c1cc(Br)c(Br)s1
Units symbol: nM
Ki: 27

Compound: COc1ccc(-c2cc(CC3CCOCC3)nc(N3CCC(N)CC3)c2)cc1
Units symbol: nM
Ki: 38.8

Compound: CSc1nn2c3c(cnc2c1S(=O)(=O)c1ccccc1)CCCC3
Units symbol: nM
Ki: 0.549

Compound: NCCn1c(=O)n(S(=O)(=O)c2ccc(Cl)s2)c2cccnc21
Units symbol: nM
Ki: 18

Compound: O=S(=O)(c1cccc(Br)c1)n1cc(C(F)F)c2c(NC3CCNCC3)cccc21
Units symbol: nM
Ki: 11

[A] CN1CCC(c2n[nH]c3ccc(S(=O)(=O)c4ccc(F)cc4)cc23)CC1
[B] O=S(=O)(c1cccc(Cl)c1)n1cc(C(F)F)c2cc(N3CCNCC3)ccc21
[Q] For A and B , which recorded Ki is lower? Kindly state the label of the option you pick.
[A] B
(B: 15 nM, A: 66 nM)

[A] O=c1n(C2CCNCC2)c2ccccc2n1S(=O)(=O)c1c(Cl)nc2ccccn12
[B] Nc1ccc(S(=O)(=O)n2ccc3c(OC4CCNCC4)cccc32)cc1
[Q] For A and B , which recorded Ki is lower? Kindly state the label of the option you pick.
[A] B

[A] O=c1c2ccc3c(ccn3CCN3CCCC3)c2ccn1Cc1ccc(F)cc1
[B] O=c1n(C2CCNCC2)c2ccccc2n1S(=O)(=O)c1c(Cl)nc2sc(Cl)cn12
[C] Nc1ccc(S(=O)(=O)n2ccc3c(OC[C@@H]4CCCN4)cccc32)cc1
[D] C[C@@H](NCC1CCc2ccc(NS(=O)(=O)c3ccc(Cl)s3)cc2O1)c1ccccc1 (some centres unmarked)
[Q] Arrange the 4 compounds by rising Ki, starting with the smallest. Give the labels in the order specified.
[A] C, D, B, A
(C: 1 nM, D: 2 nM, B: 23 nM, A: 507 nM)

[a] O=S(=O)(c1ccc(F)cc1)n1ccc2c(OC[C@@H]3CCCN3)cccc21
[b] CCN(CC)CCC(=O)Nc1ccc2cnn(S(=O)(=O)c3cccc4ccccc34)c2c1
[Q] For a and b , which recorded Ki is lower? Kindly state the label of the option you pick.
[A] b
(b: 2.1 nM, a: 31 nM)

[I] O=c1n(C2=CCNCC2)c2ccccc2n1S(=O)(=O)c1cc(Cl)sc1Cl
[II] O=S(=O)(c1cccc(C(F)(F)F)c1)N1Cc2ccccc2[C@@H]2CN(Cc3ccccc3)C[C@H]2C1 (relative stereo)
[III] O=S(=O)(c1cccc(Cl)c1)n1cc(C(F)F)c2c(N3CCNCC3)cc(Cl)cc21
[IV] O=c1n(C2=CCNCC2)c2ccccc2n1S(=O)(=O)c1ccc2ccccc2c1
[Q] Place the items in sequence of falling Ki. Give the labels in the order specified.
[A] II, I, IV, III
(II: 140 nM, I: 9 nM, IV: 6 nM, III: 1.4 nM)

[A] O=S(=O)(c1cccc(F)c1)n1cc(C(F)F)c2c(NC3CCNCC3)cccc21
[B] NCCC(=O)Nc1ccc2c(cnn2S(=O)(=O)c2cccc3ccccc23)c1
[C] O=S(=O)(c1ccccc1F)n1ccc2c(OC[C@@H]3CCCN3)cccc21
[Q] Arrange the 3 compounds by rising Ki, starting with the smallest. Give the labels in the order specified.
[A] C, A, B

* * *

Let's look at some Ki data for 5-hydroxytryptamine receptor 6 (Homo sapiens, UniProt P50406) that I collected from the literature.
Readout label: Ki (nM)

Molecule: C/C(=N\NC(=N)N)c1ccn(S(=O)(=O)c2ccccc2)c1
Units symbol: nM
Ki: 1.5
--
Molecule: O=c1n(C2CCNCC2)c2ccccc2n1S(=O)(=O)c1ccc(Br)s1
Units symbol: nM
Ki: 5
--
Molecule: CN1CCC(c2n[nH]c3ccc(S(=O)(=O)c4ccc(OC(F)(F)F)cc4)cc23)CC1
Units symbol: nM
Ki: 48
--
Molecule: NCCn1c(=O)n(S(=O)(=O)c2ccc3ccccc3c2)c2ccccc21
Units symbol: nM
Ki: 23
--
Molecule: C[C@@H](NCC1CCc2ccc(N(C)S(=O)(=O)c3ccccc3Br)cc2O1)c1ccccc1 (some centres unmarked)
Units symbol: nM
Ki: 3

[I] COc1ccc(S(=O)(=O)Nc2ccc3[nH]cc(C(C)=NNC(=N)N)c3c2)cc1
[II] O=S(=O)(c1cccc(Cl)c1)N1Cc2ccccc2[C@@H]2CN(Cc3ccccc3)C[C@H]2C1 (relative stereo)
[Q] Form field 'greater Ki' accepts I or II ; which applies? Kindly state the label of the option you pick.
[A] II
(II: 43 nM, I: 1 nM)

* * *

Let's look at some Ki data for 5-hydroxytryptamine receptor 6 (Homo sapiens) that I collected from the literature.
Readout label: Ki (nM)

Molecule: O=C(Nc1ccc2cnn(S(=O)(=O)c3cccc4ccccc34)c2c1)C1CCCNC1 (centres unmarked)
Units symbol: nM
Quantitative result: 3.4
//
Molecule: O=S(=O)(c1ccc(F)cc1)n1ncc2c(OCCN3CCCCC3)cccc21
Units symbol: nM
Quantitative result: 19
//
Molecule: CC(C)N1CCN(c2cccc3c2c(C(F)F)cn3S(=O)(=O)c2cccc(F)c2)CC1
Units symbol: nM
Quantitative result: 27

[A] CN1CCOc2ccc3c(ccn3S(=O)(=O)c3ccccc3)c2C1
[B] CN1CCN(c2cc(-c3ccc4ccccc4n3)cc(CC3CCOCC3)n2)CC1
[C] CN(C)C1CCc2ccc3c(ccn3S(=O)(=O)c3ccc(F)c(F)c3)c2C1 (centres unmarked)
[Q] Arrange the 3 molecules by rising Ki, starting with the smallest. Give the labels in the order specified.
[A] A, C, B
(A: 2 nM, C: 9 nM, B: 39.6 nM)

* * *

pKi: −log10 of the molar value.
Let's look at some pKi data for 5-hydroxytryptamine receptor 6 (Homo sapiens, UniProt P50406) that I collected from the literature.
Readout label: pKi

Observe how each entry below is paired with its result.
Molecule: NCCn1c(=O)n(S(=O)(=O)c2ccccc2Cl)c2cccnc21
Target under test: 5-hydroxytryptamine receptor 6 (Homo sapiens, UniProt P50406)
Quantitative result: 7.26
--
Molecule: CC1CCCC(C)N1CC1CCc2ccc(NS(=O)(=O)c3ccccc3)cc2O1 (stereo not drawn)
Target under test: 5-hydroxytryptamine receptor 6 (Homo sapiens, UniProt P50406)
Quantitative result: 7.14
--
Molecule: C[C@H](NCC1CCc2ccc(NS(=O)(=O)c3ccccc3)cc2O1)c1ccccc1 (stereo partly drawn)
Target under test: 5-hydroxytryptamine receptor 6 (Homo sapiens, UniProt P50406)
Quantitative result: 8.00

[1] CN(C)CCOc1cc2c3c(c1)c(S(=O)(=O)c1cccc4ccccc14)nn3CCO2
[2] CN1CCN(c2cc(-c3ccccn3)cc(CC3CCOCC3)n2)CC1
[Q] Form field 'greater pKi' accepts 1 or 2 ; which applies? Kindly state the label of the option you pick.
[A] 1

* * *

Let's look at some Ki data for UniProt:P50406 that I collected from the literature.
Readout label: Ki (nM)

Observe how each entry below is paired with its result.
Compound: O=S(=O)(Nc1ccc2c(c1)OC(CNCc1ccccc1)CC2)c1ccccc1 (stereo not drawn)
Quantitative result: 2

Compound: O=S(=O)(c1ccccc1)c1cn(CC2CCCN2Cc2ccccc2)c2ncccc12 (stereo not drawn)
Quantitative result: 163

Compound: O=c1n(C2=CCNCC2)c2ccccc2n1S(=O)(=O)c1cccc2nsnc12
Quantitative result: 12

Compound: O=S(=O)(c1cccc(Cl)c1)n1cc(C(F)F)c2c(N3CCNCC3)cc(Br)cc21
Quantitative result: 1.7

[a] O=S(=O)(c1ccc(Cl)s1)c1cn(CC2CCCN2)c2ncccc12 (stereo not drawn)
[b] CSc1nn2c3c(c(C)nc2c1S(=O)(=O)c1ccccc1)CCCC3
[Q] For a and b , which recorded Ki is lower? Kindly state the label of the option you pick.
[A] b

[a] CCCNC1CCc2ccc3c(ccn3S(=O)(=O)c3ccc(C)cc3)c2C1 (stereo not drawn)
[b] O=S(=O)(c1cccc(Cl)c1)n1cc(C(F)F)c2c(N3CCNCC3)cccc21
[c] CN(C)CCn1c(=O)n(S(=O)(=O)c2ccc(Cl)s2)c2ccccc21
[Q] Arrange the 3 compounds by rising Ki, starting with the smallest. Give the labels in the order specified.
[A] b, a, c
(b: 0.68 nM, a: 12 nM, c: 43 nM)
